Cited source: ChEMBL document CHEMBL1133105

Here the recorded Percent antileishmanial activity (reduction of parasite load) is given for each entry.
test system: Leishmania infantum; assay: Percentage of activity against Leishmania infantum at 3.13 uM; format: functional
Respond with the bare value in %.

Recorded results for 2 compounds are shown here.
COc1ccc2nc3cc(Cl)ccc3c(NCCCCN(CCCNc3c4ccc(Cl)cc4nc4ccc(OC)cc34)C(=O)C(C)NC(=O)OC(C)(C)C)c2c1 (stereo not drawn)	20
COc1ccc2nc3cc(Cl)ccc3c(NCCCN(CCCNc3c4ccc(Cl)cc4nc4ccc(OC)cc34)C(=O)C(CC(C)C)NC(=O)OC(C)(C)C)c2c1 (stereo not drawn)	95

Identify Percent antileishmanial activity (reduction of parasite load) associated with the compound COc1ccc2nc3cc(Cl)ccc3c(NCCCN(CCCNc3c4ccc(Cl)cc4nc4ccc(OC)cc34)C(=O)C(C)NC(=O)OC(C)(C)C)c2c1 (stereo not drawn) 60

---

test system: Leishmania infantum; assay: Percentage of activity against Leishmania infantum at 3.13 uM; type: functional
Property measured: Percent antileishmanial activity (reduction of parasite load)
The reply should consist of the numeric value with the unit placed after it.

Recorded results for 3 compounds are shown here.
COc1ccc2nc3cc(Cl)ccc3c(NCCCN(CCCNc3c4ccc(Cl)cc4nc4ccc(OC)cc34)C(=O)C(CCCCNC(=O)OCC3c4ccccc4-c4ccccc43)NC(=O)OC(C)(C)C)c2c1 (stereo unspecified)	0%
COc1ccc2nc3cc(Cl)ccc3c(NCCCN(CCCNc3c4ccc(Cl)cc4nc4ccc(OC)cc34)C(=O)C(C)NC(=O)OCC3c4ccccc4-c4ccccc43)c2c1 (stereo unspecified)	40%
COc1ccc2nc3cc(Cl)ccc3c(NCCCN(CCCNc3c4ccc(Cl)cc4nc4ccc(OC)cc34)C(=O)CCN3CCNCC3)c2c1	0%

Identify Percent antileishmanial activity (reduction of parasite load) associated with the compound "COc1ccc2nc3cc(Cl)ccc3c(NCCCN(CCCNc3c4ccc(Cl)cc4nc4ccc(OC)cc34)C(=O)[C@@H](C)NC(=O)OC(C)(C)C)c2c1" 99%

Identify Percent antileishmanial activity (reduction of parasite load) associated with the compound "COc1ccc2nc3cc(Cl)ccc3c(NCCCN(CCCNc3c4ccc(Cl)cc4nc4ccc(OC)cc34)C(=O)CCC(=O)N3CCOCC3)c2c1" 0%

Identify Percent antileishmanial activity (reduction of parasite load) associated with the compound COc1ccc2nc3cc(Cl)ccc3c(NCCN(CCNc3c4ccc(Cl)cc4nc4ccc(OC)cc34)C(=O)C(C)NC(=O)OC(C)(C)C)c2c1 (stereo unspecified) 20%

---

Here the recorded Antileishmanial activity (% reduction of parasite load) is given for each entry.
tested on: Leishmania infantum; test: Percentage of activity against Leishmania infantum 6.25 uM; assay type: functional
Respond with the bare value in %.

Recorded results for 3 compounds are shown here.
COc1ccc2nc3cc(Cl)ccc3c(NCCCN(CCCNc3c4ccc(Cl)cc4nc4ccc(OC)cc34)C(=O)C(CO)NC(=O)OC(C)(C)C)c2c1 (centres undefined)	0
COc1ccc2nc3cc(Cl)ccc3c(NCCCCCCCCCCNc3c4ccc(Cl)cc4nc4ccc(OC)cc34)c2c1	90
COc1ccc2nc3cc(Cl)ccc3c(NCCCN(CCCNc3c4ccc(Cl)cc4nc4ccc(OC)cc34)C(=O)C(CCCCN)NC(=O)OC(C)(C)C)c2c1 (centres undefined)	0

Moving on to another compound below.
Identify Antileishmanial activity (% reduction of parasite load) associated with the compound COc1ccc2nc3cc(Cl)ccc3c(NCCCCN(CCCNc3c4ccc(Cl)cc4nc4ccc(OC)cc34)C(=O)C(C)NC(=O)OC(C)(C)C)c2c1 (centres undefined) 40
